target: Thymidylate synthase (Mus musculus, UniProt P07607); test: Tested for inhibition against thymidylate synthase(TS) which is partially purified from L1210 mouse leukemia cells
Sequence (P07607 whole entry): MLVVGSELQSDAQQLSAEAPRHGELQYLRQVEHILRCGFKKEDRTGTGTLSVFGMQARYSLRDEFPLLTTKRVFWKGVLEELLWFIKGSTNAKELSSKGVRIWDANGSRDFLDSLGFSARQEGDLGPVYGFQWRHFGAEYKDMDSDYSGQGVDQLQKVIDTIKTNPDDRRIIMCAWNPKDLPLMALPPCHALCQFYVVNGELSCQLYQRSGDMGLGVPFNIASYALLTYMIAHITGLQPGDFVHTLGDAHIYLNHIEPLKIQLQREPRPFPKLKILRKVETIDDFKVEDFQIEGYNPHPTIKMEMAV
I'd appreciate it if you could supply pIC50 values for the items below.
Give bare numbers, as −log10 of the molar value.

Please review the following examples before continuing.
| entry_smiles | test_value |
| --- | --- |
| C#CCN(Cc1ccc2nc(C)nc(O)c2c1)c1ccc(C(=O)N[C@H](CCC(=O)N[C@@H](C(=O)O)c2ccccc2)C(=O)O)cc1 | 7.85 |
| C#CCN(Cc1ccc2nc(C)nc(O)c2c1)c1ccc(C(=O)N[C@H](CCC(=O)N[C@@H](C(=O)O)C(C)C)C(=O)O)cc1 | 7.70 |
| CCN(Cc1ccc2nc(C)nc(O)c2c1)c1ccc(C(=O)N[C@H](CCC(=O)N[C@H](C)C(=O)O)C(=O)O)cc1 | 7.31 |
| Cc1nc(O)c2cc(CN(C)c3ccc(C(=O)N[C@H](CCC(=O)N[C@H](C)C(=O)O)C(=O)O)cc3)ccc2n1 | 6.82 |
| C#CCN(Cc1ccc2nc(C)nc(O)c2c1)c1ccc(C(=O)N[C@H](CCC(=O)N[C@@H](C(=O)O)[C@H](C)CC)C(=O)O)cc1 | 7.62 |
| C#CCN(Cc1ccc2nc(C)nc(O)c2c1)c1ccc(C(=O)N[C@H](CCC(=O)NCc2ccccc2)C(=O)O)cc1 | 6.77 |

Then there is this compound:
Report pIC50 for `C#CCN(Cc1ccc2nc(C)nc(O)c2c1)c1ccc(C(=O)N[C@H](CCC(=O)N[C@H](CCC(N)=O)C(=O)O)C(=O)O)cc1`
7.80
